assay_target: EparOBP2
test: Fluorescence competitive binding assay (displacement of 1-NPN)
settings: Ki = IC50/(1 + [1-NPN]/K1-NPN); 2 μM protein, 50 mM Tris-HCl pH 7.4
Ki class ranges: small value = under 20 µM, mid value = from 20 µM up to 30 µM, large value = 30 µM and over

compound: C=C(C)[C@@H]1CC=C(C)CC1 [(S)-(-)-Limonene]
assigned_category: large value

compound: CC1=C[C@H](O)[C@H]2C[C@@H]1C2(C)C [S-(-)-cis-Verbenol]
assigned_category: small value

compound: CC1=CCC2CC1C2(C)C (stereo not drawn)
assigned_category: small value

compound: C=CC(=C)CCC=C(C)C
assigned_category: small value

compound: C=C1[C@H]2CC[C@@H]3[C@H]2C(C)(C)CCC[C@]13C [(+)-Longifolene]
assigned_category: large value

compound: C=C1C2CCC(C2)C1(C)C (stereo not drawn)
assigned_category: mid value

compound: CCCCCCCCCCCCCC
assigned_category: mid value

compound: CC(C)(O)c1ccccc1
assigned_category: mid value

Place this compound in its band: C=CC(C)(C)O large value

====

assay_target: EparOBP2
test: Fluorescence competitive binding assay (displacement of 1-NPN)
settings: ligand concentration displacing 50% of 1-NPN; 2 μM protein, 50 mM Tris-HCl pH 7.4
So basically: is IC50 under 30 µM? Then true (1). Not under? Then false (0).

Example results:
compound: C=C1C2CCC(C2)C1(C)C (stereo not drawn)
assay_target: EparOBP2
assigned_category: false (0)
--
compound: CC1=C[C@H](O)[C@H]2C[C@@H]1C2(C)C [S-(-)-cis-Verbenol]
assay_target: EparOBP2
assigned_category: true (1)
--
compound: C=CC(=C)CCC=C(C)C
assay_target: EparOBP2
assigned_category: true (1)
--
compound: C=C(C)[C@@H]1CC=C(C)CC1 [(S)-(-)-Limonene]
assay_target: EparOBP2
assigned_category: false (0)
--
compound: CCCCCCCCCCCCCC
assay_target: EparOBP2
assigned_category: false (0)
--
compound: CC(C)(O)c1ccccc1
assay_target: EparOBP2
assigned_category: true (1)
--
compound: CC1=CCC2CC1C2(C)C (stereo not drawn)
assay_target: EparOBP2
assigned_category: true (1)
--
compound: C=C1[C@H]2CC[C@@H]3[C@H]2C(C)(C)CCC[C@]13C [(+)-Longifolene]
assay_target: EparOBP2
assigned_category: false (0)

Shift focus to the following entry.
Please determine if C=CC(C)(C)O is below 30 µM in terms of IC50. false (0)

====

assay_target: EparOBP2
test: Titration of EparOBP2 with fluorescent probe 1-NPN (saturation and Scatchard plot)
settings: 2 μM protein titrated with 2 to 20 μM 1-NPN, pH 7.4; read-out: K1-NPN (dissociation constant of 1-NPN)
measured_metric: Kd
Value and unit, in that order.

Look up Kd for this molecule: c1ccc(Nc2cccc3ccccc23)cc1 [1-NPN, N-phenyl-1-naphthylamine] 4.98 µM
